Recorded pIC50 by entry
Biological target: ERK5 (Homo sapiens)
Construct: made in house
Sequence (Q13164 whole entry): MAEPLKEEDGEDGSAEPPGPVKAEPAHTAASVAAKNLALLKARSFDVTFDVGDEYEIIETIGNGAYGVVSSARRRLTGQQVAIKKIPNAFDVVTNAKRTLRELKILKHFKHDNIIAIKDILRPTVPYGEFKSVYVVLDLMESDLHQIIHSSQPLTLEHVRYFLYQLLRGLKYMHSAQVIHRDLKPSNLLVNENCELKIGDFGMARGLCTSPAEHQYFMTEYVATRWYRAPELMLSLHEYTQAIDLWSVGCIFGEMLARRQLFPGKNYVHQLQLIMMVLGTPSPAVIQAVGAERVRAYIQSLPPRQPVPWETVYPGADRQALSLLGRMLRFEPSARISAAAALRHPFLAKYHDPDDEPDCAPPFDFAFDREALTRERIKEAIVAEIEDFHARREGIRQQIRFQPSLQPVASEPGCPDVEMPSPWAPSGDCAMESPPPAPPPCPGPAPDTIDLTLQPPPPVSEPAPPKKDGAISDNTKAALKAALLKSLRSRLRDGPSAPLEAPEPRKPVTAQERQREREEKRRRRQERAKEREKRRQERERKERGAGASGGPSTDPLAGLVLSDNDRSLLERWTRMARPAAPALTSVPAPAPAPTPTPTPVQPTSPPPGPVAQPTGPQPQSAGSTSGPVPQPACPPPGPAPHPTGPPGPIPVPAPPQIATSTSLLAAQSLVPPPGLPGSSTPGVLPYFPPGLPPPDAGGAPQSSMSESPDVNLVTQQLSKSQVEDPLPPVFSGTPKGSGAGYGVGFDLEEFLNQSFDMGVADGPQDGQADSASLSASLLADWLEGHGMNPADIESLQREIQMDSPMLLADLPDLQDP
Assay: ERK5 IMAP assay (fluorescence polarisation)
Assay type: biochemical
Settings: average (e.g. geometric mean) where more than one data point; read-out: ERK5 IC50
pIC50: −log10 of the molar value.

| smiles.data | pIC50 |
| --- | --- |
| Cc1cc(NC(=O)c2cc(C(=O)c3c(F)cccc3Br)c[nH]2)cc(C)n1 | 6.18 |
| CN1CCC(NC(=O)c2cc(C(=O)c3c(F)cccc3Br)c[nH]2)CC1 | 6.54 |
| O=C(NC1CCN(c2ncccn2)CC1)c1cc(C(=O)c2c(F)cccc2Cl)c[nH]1 | 6.58 |
| O=C(Nc1cccnc1N1CCCC1)c1cc(C(=O)c2c(Cl)ccc(Cl)c2F)c[nH]1 | 4.91 |
| CN1CCC(Nc2ncc(NC(=O)c3cc(C(=O)c4c(F)cccc4Cl)c[nH]3)cn2)CC1 | 7.03 |
| O=C(Nc1cccnc1)c1cc(C(=O)c2c(Cl)ccc(OC3COC3)c2F)c[nH]1 | 7.14 |

====

Biological target: ERK5 (Homo sapiens)
Construct: made in house
Assay: ERK5 IMAP assay (fluorescence polarisation)
Assay type: biochemical
Conditions: average (e.g. geometric mean) where more than one data point; read-out: ERK5 IC50
pIC50: −log10 of the molar value.
Returns one of True or False; True when pIC50 is >= 6.

| compound | class.assignment |
| --- | --- |
| O=C(Nc1cnc(NCCN2CCCC2)nc1)c1cc(C(=O)c2c(Cl)ccc(Cl)c2F)c[nH]1 [Example 102] | True |
| CS(=O)(=O)N1CCC(NC(=O)c2cc(C(=O)c3c(Cl)ccc(Cl)c3F)c[nH]2)CC1 [Example 9] | True |
| Cc1ncccc1NC(=O)c1cc(C(=O)c2c(Cl)ccc(Cl)c2F)c[nH]1 [Example 81] | True |
| O=C(NC1CCOCC1)c1cc(C(=O)c2c(F)cccc2F)c[nH]1 [Example 124] | False |
| COc1ccc(Cl)c(C(=O)c2c[nH]c(C(=O)Nc3cnc(CN4CCN(C)CC4)nc3)c2)c1F [Example 245] | True |
| O=C(Nc1ccc(CC2CCNCC2)nc1)c1cc(C(=O)c2c(Cl)ccc(Cl)c2F)c[nH]1 [Example 111] | True |
| CCc1ccncc1NC(=O)c1cc(C(=O)c2c(F)cccc2Cl)c[nH]1 [Example 88] | False |
| O=C(Nc1cnn(C2CCN(CC(F)(F)F)CC2)c1)c1cc(C(=O)c2c(Cl)ccc(Cl)c2F)c[nH]1 [Example 42] | False |
| O=C(Nc1cnc(NC2CCN(C3CC3)CC2)nc1)c1cc(C(=O)c2c(Cl)ccc(Cl)c2F)c[nH]1 [Example 25] | True |
| CN1CCN(c2cc(NC(=O)c3cc(C(=O)c4c(Cl)ccc(Cl)c4F)c[nH]3)ccn2)CC1 [Example 37] | True |
| O=C(NC1CCNCC1)c1cc(C(=O)c2cccc(Cl)c2Cl)c[nH]1 [Example 160] | False |
| CS(=O)(=O)CCNc1ncc(NC(=O)c2cc(C(=O)c3c(Cl)ccc(Cl)c3F)c[nH]2)cn1 [Example 101] | True |
| CN1CCC(Nc2ccc(NC(=O)c3cc(C(=O)c4c(Cl)ccc(Cl)c4F)c[nH]3)cn2)CC1 [Example 32] | True |
| O=C(Nc1ccc(F)nc1)c1cc(C(=O)c2c(F)cccc2Br)c[nH]1 [Example 153] | False |
| O=C(Nc1ccnc(N2CCCC2)c1)c1cc(C(=O)c2c(F)cccc2Cl)c[nH]1 [Example 35] | True |
| Cc1cc(NC(=O)c2cc(C(=O)c3c(F)cccc3Cl)c[nH]2)ccn1 [Example 136] | True |
| CNCc1ccc(F)c(C(=O)c2c[nH]c(C(=O)Nc3cccnc3)c2)c1F [Example 274] | False |

Values were extracted from patent US10344017B2.
